Below, each entry is listed alongside its reported SH2 binding enrichment.
Target: SHP2-C SH2;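 further: peptide library displayed on the E. coli surface as eCPX fusions, selected cells deep-sequenced, score is each peptide's frequency after selection divided by its frequency in the input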
Experiment: SH2 binding enrichment of the phosphorylated peptide, bacterial display (enrichment ratio); higher = better substrate or ligand; peptides without Tyr show the background
readout: SH2 binding enrichment

monomer_sequence="DFPMGYPSFLA [TBCK_Y153_I151M_YF]" result=0.523
monomer_sequence="RTTKTYFPHFD [HBA1_Y43_P38R]" result=1.18
monomer_sequence="PSPMPYAFCQM [FOXL2_Y215_S217F]" result=0.774
monomer_sequence="EYGRRYGFSCQ [CCDC93_Y209_R213C]" result=0.492
monomer_sequence="RNVFFYSFLLK [PTEN_Y178_Y174N_YF]" result=1.02
monomer_sequence="ETCLAYREKRI [TEKT1_Y118]" result=0.742
monomer_sequence="PGAGHYEDTIL [ALK_Y1604]" result=0.559
monomer_sequence="EYQKKYSDADI [CKAP5_Y1860_K1857Q]" result=0.808
monomer_sequence="KSVLVYRNGDP [DCDC2_Y22]" result=0.829
monomer_sequence="MKALGYFAVGT [OPA1_Y498_V502G]" result=0.545
monomer_sequence="VPFARYLAMNK [HARS1_Y138]" result=0.561
monomer_sequence="HAVFVYDICHV [TWNK_Y508_YF]" result=1.27
monomer_sequence="LFSLGYHQSRW [GANAB_Y396]" result=0.828
monomer_sequence="KLRMESLSLMH [NCKIPSD_Y660_Y660S]" result=0.923
monomer_sequence="ALLTKYSRSSM [DSCC1_Y374_H376R]" result=0.615
monomer_sequence="IIQRAYRRHLL [SCN1A_Y1926]" result=0.381
monomer_sequence="SRGHQYQELPR [KCNH2_Y1009_R1007H]" result=0.807
monomer_sequence="KSVEEYANCHL [TF_Y593_P589S]" result=0.782
monomer_sequence="LNEWHYGGLTG [PGAM2_Y92_R90W]" result=1.29
monomer_sequence="LFPANYVAPMT [GRAP2_Y324]" result=0.835
monomer_sequence="MFDKEYFSVHN [MET_Y1234_YF]" result=0.713
monomer_sequence="NARGLYFKLHN [GATA2_Y376_C373R_YF]" result=0.88
monomer_sequence="VDEERYDIEGK [TNNI3_Y112_A116G]" result=0.98
monomer_sequence="KVNKIYHPDFI [LIG3_Y767_Y768H]" result=0.999
monomer_sequence="RLMLQYDAVVN [SLC25A32_Y152]" result=0.863
monomer_sequence="LLANAYIFDVQ [L1CAM_Y418_V421D_YF]" result=0.99
monomer_sequence="YSTDYYRVGGH [NTRK2_Y707]" result=0.922
monomer_sequence="DLKFHYDNTAG [KDR_Y1214_P1210L]" result=0.598
monomer_sequence="CKRQFYLYKGK [RSPO4_Y112]" result=1.15
monomer_sequence="ETLLFYGCRRS [POR_Y564_YF]" result=0.582
monomer_sequence="MTKEQYIKMNR [ARFGEF2_Y797]" result=0.672
monomer_sequence="NFRNTYVNANE [KCNH2_Y475_T473N]" result=1.55
monomer_sequence="IHHIDYYKKTT [FGFR1_Y653]" result=1.22
monomer_sequence="RELGEYALAEF [ALDH1A3_Y492_YF]" result=0.411
monomer_sequence="YIRKDYEACKA [BBS4_Y48]" result=1.11
monomer_sequence="ATARPYRPYII [LRP5_Y1528]" result=0.86
monomer_sequence="MILSAYALGGL [CPS1_Y590_R587L]" result=0.794
monomer_sequence="HTLQLYRCREE [ALPK3_Y342]" result=0.658
monomer_sequence="YRKNTYNVKST [SYNE2_Y575_I574T]" result=0.715
monomer_sequence="QWQQLYDTLNA [EIF3M_Y351]" result=0.777
monomer_sequence="SVVVPNEPPEV [TP53_Y220_Y220N]" result=0.783

====

Target: Jak2 (UniProt O60674)
Sequence (O60674 whole entry, looked up): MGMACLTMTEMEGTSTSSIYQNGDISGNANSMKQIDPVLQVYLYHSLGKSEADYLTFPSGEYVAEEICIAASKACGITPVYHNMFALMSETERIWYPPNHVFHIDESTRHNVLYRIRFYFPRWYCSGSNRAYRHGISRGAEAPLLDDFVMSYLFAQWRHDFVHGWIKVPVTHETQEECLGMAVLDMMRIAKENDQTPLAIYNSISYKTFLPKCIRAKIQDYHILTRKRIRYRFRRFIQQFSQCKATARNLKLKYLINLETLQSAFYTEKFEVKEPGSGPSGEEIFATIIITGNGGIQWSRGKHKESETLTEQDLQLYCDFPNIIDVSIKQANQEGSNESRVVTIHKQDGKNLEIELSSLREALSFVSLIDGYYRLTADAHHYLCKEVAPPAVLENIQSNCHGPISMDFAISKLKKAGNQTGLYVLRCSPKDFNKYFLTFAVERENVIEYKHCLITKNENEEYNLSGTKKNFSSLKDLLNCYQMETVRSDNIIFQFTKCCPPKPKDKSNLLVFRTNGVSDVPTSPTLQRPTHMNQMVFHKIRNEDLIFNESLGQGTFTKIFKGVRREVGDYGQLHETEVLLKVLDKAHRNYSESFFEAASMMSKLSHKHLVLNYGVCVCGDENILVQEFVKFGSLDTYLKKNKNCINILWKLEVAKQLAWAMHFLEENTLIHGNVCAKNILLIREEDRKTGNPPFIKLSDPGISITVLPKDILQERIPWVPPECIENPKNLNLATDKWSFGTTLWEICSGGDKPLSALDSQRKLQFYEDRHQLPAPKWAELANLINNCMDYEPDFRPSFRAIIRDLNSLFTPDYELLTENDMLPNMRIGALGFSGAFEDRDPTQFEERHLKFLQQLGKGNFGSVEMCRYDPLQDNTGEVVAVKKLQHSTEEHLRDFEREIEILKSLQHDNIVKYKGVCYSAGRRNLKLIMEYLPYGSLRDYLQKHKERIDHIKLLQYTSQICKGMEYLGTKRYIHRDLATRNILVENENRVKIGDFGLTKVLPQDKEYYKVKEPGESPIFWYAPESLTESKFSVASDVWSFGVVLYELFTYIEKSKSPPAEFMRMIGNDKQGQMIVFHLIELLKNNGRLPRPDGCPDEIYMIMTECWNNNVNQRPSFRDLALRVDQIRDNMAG
Test: phosphorylation enrichment, bacterial display (enrichment ratio); higher = better substrate or ligand; peptides without Tyr show the background
// criterion not met strictly below 1 in phosphorylation enrichment; criterion met otherwise

monomer_sequence="NTFEKYWPFFQ [GATM_Y103_YF]" label="criterion not met"
monomer_sequence="VDEERYDIEGK [TNNI3_Y112_A116G]" label="criterion met"
monomer_sequence="CGASGYSATST [CERT1_Y143_S138C]" label="criterion met"
monomer_sequence="LGSNTYPFLLT [SAG_Y120]" label="criterion not met"
monomer_sequence="HKNNNYEPSLF [BRCA2_Y57_N60S]" label="criterion not met"
monomer_sequence="VPFARYLAMNK [HARS1_Y138]" label="criterion not met"
monomer_sequence="RPYSPYIIRGM [LRP5_Y1531_R1529S]" label="criterion not met"
monomer_sequence="SGEKPYKCSVC [ZNF543_Y283_E287V]" label="criterion not met"
monomer_sequence="EHIEFYELDKK [PMM2_Y145_R141H]" label="criterion not met"
monomer_sequence="IMAYFYMCDSA [CASD1_Y382_R386S]" label="criterion met"
monomer_sequence="FADIAYNFRHA [PAH_Y166_G171A_YF]" label="criterion not met"
monomer_sequence="NGLVACKDGKL [PMM2_Y76_Y76C]" label="criterion not met"
monomer_sequence="LAGRYYALKSM [CKB_Y174]" label="criterion met"
monomer_sequence="QEGPEYWDEET [HLA-A_Y83_Q86E]" label="criterion met"
monomer_sequence="KGELRYMHSPV [ABCD1_Y281_R285P]" label="criterion not met"
monomer_sequence="KSELAYEIFDK [MYOM2_Y1024]" label="criterion met"
monomer_sequence="PNATLYKMSSI [SERPINA7_Y40]" label="criterion not met"
monomer_sequence="HIAKGYRRDNP [HARS1_Y156_V155G]" label="criterion not met"
monomer_sequence="KPIETYFSKNY [PLP1_Y50_L46P]" label="criterion not met"
monomer_sequence="SLIDMYSKVLD [OPA1_Y268_E270K]" label="criterion not met"
monomer_sequence="VYYGSYSCPYG [NKAP_Y104_R106C]" label="criterion met"
monomer_sequence="TWEKPYECVQC [ZNF24_Y335_G331W]" label="criterion not met"
monomer_sequence=LANNEYFFQVC label="criterion met"
monomer_sequence="ADARMYGVLPR [PLP1_Y207_W212R]" label="criterion not met"
monomer_sequence="PPNSPYIGSSP [KCNT1_Y740]" label="criterion not met"
monomer_sequence="FARNSYVAGQY [G6PD_Y107]" label="criterion not met"
monomer_sequence="IRQGHYESLKE [MTR_Y921_D919G]" label="criterion not met"
monomer_sequence="TFGVAYRAKDK [CDK11B_Y453_V452A_YF]" label="criterion met"
monomer_sequence="FQNSLYAPDFS [FAM92A_Y226_R222Q_YF]" label="criterion met"
monomer_sequence="PGLRGYPGLSG [COL4A2_Y306]" label="criterion met"
monomer_sequence="MAFDRYVAICA [OR52J3_Y125_V128I]" label="criterion not met"
monomer_sequence="FVKEPYIQSRF [HIPK4_Y175_YF]" label="criterion not met"
monomer_sequence="LWQSIYNLEAE [TNNT2_Y251]" label="criterion not met"
monomer_sequence="FCRHNYGVGES [HLA-DRB1_Y112_V115G_YF]" label="criterion not met"
monomer_sequence="HRDSSYFWEIE [RAF1_Y340_Q335H_YF]" label="criterion met"
monomer_sequence="FVPSFYHAFSG [ACTN4_Y265_S262P_YF]" label="criterion not met"
monomer_sequence="CCNHPYRINGA [CHD7_Y1256_L1257R]" label="criterion not met"

====

Molecular target: FGFR3 (UniProt P22607)
Sequence (P22607 whole entry, looked up): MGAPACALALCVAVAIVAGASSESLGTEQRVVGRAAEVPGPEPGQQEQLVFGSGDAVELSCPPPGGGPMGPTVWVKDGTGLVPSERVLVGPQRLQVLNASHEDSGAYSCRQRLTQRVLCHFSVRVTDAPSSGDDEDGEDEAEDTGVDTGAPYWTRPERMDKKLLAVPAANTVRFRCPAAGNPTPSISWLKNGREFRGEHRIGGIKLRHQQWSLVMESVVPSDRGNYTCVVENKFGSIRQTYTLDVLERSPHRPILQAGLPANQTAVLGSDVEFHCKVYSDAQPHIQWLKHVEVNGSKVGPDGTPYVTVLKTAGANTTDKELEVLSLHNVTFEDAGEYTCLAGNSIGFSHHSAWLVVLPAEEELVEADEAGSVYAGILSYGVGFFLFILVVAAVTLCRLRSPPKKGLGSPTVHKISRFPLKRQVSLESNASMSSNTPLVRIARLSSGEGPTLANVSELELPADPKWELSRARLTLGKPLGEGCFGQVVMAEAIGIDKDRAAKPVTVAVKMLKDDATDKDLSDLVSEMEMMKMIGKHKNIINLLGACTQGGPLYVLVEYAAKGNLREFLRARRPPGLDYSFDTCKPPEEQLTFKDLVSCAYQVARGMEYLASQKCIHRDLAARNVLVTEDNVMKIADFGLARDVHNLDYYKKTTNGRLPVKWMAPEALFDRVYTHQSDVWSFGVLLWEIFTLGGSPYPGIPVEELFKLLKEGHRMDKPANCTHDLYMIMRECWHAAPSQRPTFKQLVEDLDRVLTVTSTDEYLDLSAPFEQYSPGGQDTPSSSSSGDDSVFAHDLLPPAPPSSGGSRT
Experiment: phosphorylation enrichment, bacterial display (enrichment ratio); higher = better substrate or ligand; peptides without Tyr show the background
Please note: TRUE applies when phosphorylation enrichment is 0.6 or greater, and FALSE applies otherwise.

monomer_sequence="MHDSNCVSKGS [PDGFRA_Y849_Y849C]" system_name="FGFR3 (UniProt P22607)" label=FALSE
monomer_sequence="PPNSPYMGSSP [KCNT1_Y740_I741M]" system_name="FGFR3 (UniProt P22607)" label=TRUE
monomer_sequence="VNFQPYRKHKF [TEX37_Y28_D24N_YF]" system_name="FGFR3 (UniProt P22607)" label=FALSE
monomer_sequence="KMMGRYEMYAR [UPB1_Y362_T359M]" system_name="FGFR3 (UniProt P22607)" label=FALSE
monomer_sequence="GLQDEYDFKCK [STAT1_Y170_D165G]" system_name="FGFR3 (UniProt P22607)" label=FALSE
monomer_sequence="GYDHSYYFIAT [ESD_Y262]" system_name="FGFR3 (UniProt P22607)" label=TRUE
monomer_sequence="LGRKLYSIATP [ABHD12_Y345_A349T]" system_name="FGFR3 (UniProt P22607)" label=TRUE
monomer_sequence="AVLVQYYMEHH [PTPN11_Y80_E76V]" system_name="FGFR3 (UniProt P22607)" label=TRUE
monomer_sequence="TSIGNYYKPWF [DHCR24_Y299_N294T]" system_name="FGFR3 (UniProt P22607)" label=TRUE
monomer_sequence="VASIFYTLVIP [OR8K3_Y277]" system_name="FGFR3 (UniProt P22607)" label=TRUE
monomer_sequence="VGTKRYMASEV [ACVRL1_Y375_P378S]" system_name="FGFR3 (UniProt P22607)" label=FALSE
monomer_sequence="DPNQQYFIAMD [TBX15_Y159_H156N_YF]" system_name="FGFR3 (UniProt P22607)" label=TRUE
monomer_sequence="DDERGYRRVRC [GIGYF2_Y268_S273C]" system_name="FGFR3 (UniProt P22607)" label=FALSE
